B1: TPR 5TU (parent)
chain: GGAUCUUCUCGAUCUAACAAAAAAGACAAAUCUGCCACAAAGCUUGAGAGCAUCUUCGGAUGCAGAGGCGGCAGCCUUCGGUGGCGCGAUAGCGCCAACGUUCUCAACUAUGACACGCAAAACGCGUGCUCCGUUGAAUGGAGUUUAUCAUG

Variants of: B1
Assay: polymerase ribozyme fitness, log enrichment relative to wild type (log ratio); higher = more active; in vitro selection for triplet polymerase activity
This sample holds only a part of the variants without activity.
# cutoff -3 applies to polymerase ribozyme fitness (log ratio); >= gives Fulfilled, < gives Not fulfilled

MUTANT_LABEL	CLASS
U13G A40U C96G A121G	Fulfilled
A37C G58C G65A	Not fulfilled
C76U G117A	Fulfilled

Request: Please tell me: is the variant A39U U78A G83A G84C A115U U134C G136U at or over -3 in terms of polymerase ribozyme fitness (log ratio)?
Response: Not fulfilled

Request: Please tell me: is the variant C8A U31G C36U C114U A142C at or over -3 in terms of polymerase ribozyme fitness (log ratio)?
Response: Not fulfilled

Request: Please tell me: is the variant U6A U44G A98U A107U at or over -3 in terms of polymerase ribozyme fitness (log ratio)?
Response: Fulfilled

Request: Please tell me: is the variant A39C U56G A73G at or over -3 in terms of polymerase ribozyme fitness (log ratio)?
Response: Not fulfilled

Request: Please tell me: is the variant A29U A41U A47C C114G C132U at or over -3 in terms of polymerase ribozyme fitness (log ratio)?
Response: Not fulfilled

Request: Please tell me: is the variant C14U A17U A24U C76A C85U at or over -3 in terms of polymerase ribozyme fitness (log ratio)?
Response: Not fulfilled

Request: Please tell me: is the variant C5A A49U C57A at or over -3 in terms of polymerase ribozyme fitness (log ratio)?
Response: Fulfilled

Request: Please tell me: is the variant U13G G58C G62U U82A G86U U127C U146G at or over -3 in terms of polymerase ribozyme fitness (log ratio)?
Response: Not fulfilled

Request: Please tell me: is the variant U15A A21C A73G C95U U135G A138G U139C at or over -3 in terms of polymerase ribozyme fitness (log ratio)?
Response: Not fulfilled

Request: Please tell me: is the variant U9A A73G at or over -3 in terms of polymerase ribozyme fitness (log ratio)?
Response: Not fulfilled

Request: Please tell me: is the variant U55A G136A at or over -3 in terms of polymerase ribozyme fitness (log ratio)?
Response: Fulfilled

Request: Please tell me: is the variant C51U C75U C96U G143C at or over -3 in terms of polymerase ribozyme fitness (log ratio)?
Response: Not fulfilled

Request: Please tell me: is the variant C51U U56A C57A C105G A122G at or over -3 in terms of polymerase ribozyme fitness (log ratio)?
Response: Fulfilled

Request: Please tell me: is the variant G70A C87U C96A C118G A147C at or over -3 in terms of polymerase ribozyme fitness (log ratio)?
Response: Not fulfilled

Request: Please tell me: is the variant C32G G42C U44A G88C C95U C103G at or over -3 in terms of polymerase ribozyme fitness (log ratio)?
Response: Not fulfilled

Request: Please tell me: is the variant U9A A23C C35G C75U G92U C95G U127A at or over -3 in terms of polymerase ribozyme fitness (log ratio)?
Response: Not fulfilled

Request: Please tell me: is the variant U53A C125U at or over -3 in terms of polymerase ribozyme fitness (log ratio)?
Response: Fulfilled

Request: Please tell me: is the variant A19G C85G G117A A137G at or over -3 in terms of polymerase ribozyme fitness (log ratio)?
Response: Fulfilled

These entries and their values trace back to the RNAGym collection of RNA variant scans (doi:10.1073/pnas.2313332121).
